The measured values listed here are drawn from patent US20080152587A1.

- target or test system: T1, cynomolgus monkey uPAR, cell-bound (cynomolgus monkey, UniProt Q9GK78 23-305)
- T1 construct: whole, on cells; also called cyno-uPAR
- T1 sequence (Q9GK78 23-305): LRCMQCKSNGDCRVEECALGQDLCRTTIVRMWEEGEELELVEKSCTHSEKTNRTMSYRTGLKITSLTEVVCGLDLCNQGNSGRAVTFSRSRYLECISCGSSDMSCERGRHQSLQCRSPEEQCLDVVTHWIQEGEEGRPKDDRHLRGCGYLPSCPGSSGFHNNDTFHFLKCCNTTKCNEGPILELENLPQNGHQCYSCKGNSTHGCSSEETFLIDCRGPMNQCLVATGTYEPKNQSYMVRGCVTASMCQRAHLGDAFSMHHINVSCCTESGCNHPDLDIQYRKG
- assay overview: FACS, GeoMean; cynomolgus uPAR expressed on 293T cells; antibody concentration not given

- binder: "anti-uPAR monoclonal antibody 1.4.2 (antibody, V domains shown) VH: EVQLVESGGGLVQPGGSLRLSCAASGFTFSSYDMHWVRQATGKGLEWVSAIGTAGDTYYPGSVKGRFTISRENAKNSLYLQMNSLRAGDTAVYYCAREGDYSNYFTMVRGVTYGMDVWGQGTTVTVSS VL: DIQLTQSPSSLCASVGDRITITCRASQGISKYLAWFQQKPGKAPKSLIYGASSLQSGVPAKFSGSGSGTDFTLTISSLQPEDFATYYCQQYNSYPLTFGGGTKVEIK"
  binding result: "binds"
- binder: "anti-uPAR monoclonal antibody 1.113.2 (antibody, V domains shown) VH: QVQLVESGGGVVQPGRSLRLSCAASGFTFSSYGMHWVRQAPGKGLEWVAVIWYDGSNKYYADSVKGRFTISRDNSKNTLYLQMNSLRAEDTAVYYCARDLAALYYYYGMHVWGQGTTVTVSS VL: EIVMTQSPATLSVSPGERATLSCRASQSFSSNLAWYQQKPGQAPRLLIYGASTRATGIPARFSGSGSGTEFTLTISSLQSEDFAVYYCQQNNNWPRTFGQGTKVEIK"
  binding result: "binds"
- binder: "anti-uPAR monoclonal antibody 4.19.1 (antibody, V domains shown) VH: EVQLVESGGGLIQPGGSLRLSCAASGFSVSSNYMNWVRQAPGKGLEWVSVIYTGGSTYYADSVKGRFTISRDNSKNTLYLQMNSLRAEDTAVYYCARDTYLYGMDVWGQGTTVTVSS VL: EIVMTQSPATLSVSPGESATLSCRTSQSVSSNLAWYQQKPGQTPRLLIYGASARATGVPARFSGSGSGTEFTLTISSLQSEDFAVYYCQQYYNWPLTFGGGTKVEIK"
  binding result: "binds"
